Each recorded value in this set is attributed to patent US8258115B2.

assay: Degradation of the active stereoisomer S,S at 40° C. and 75% R.H.; type: physicochemical; conditions: T = 0
// reported percentage of active S,S stereoisomer remaining per item
readout: percentage of active S,S stereoisomer remaining

| compound | measured |
| --- | --- |
| C[S+](CCC(N)C(=O)[O-])C[C@H]1O[C@@H](n2cnc3c(N)ncnc32)[C@H](O)[C@@H]1O.C[S+](CCC(N)C(=O)[O-])C[C@H]1O[C@@H](n2cnc3c(N)ncnc32)[C@H](O)[C@@H]1O.O=S(=O)(O)O.[Cl-].[Cl-].[Mg+2] (stereo partly shown) | 98.2% |
| C[S+](CCC(N)C(=O)[O-])C[C@H]1O[C@@H](n2cnc3c(N)ncnc32)[C@H](O)[C@@H]1O.C[S+](CCC(N)C(=O)[O-])C[C@H]1O[C@@H](n2cnc3c(N)ncnc32)[C@H](O)[C@@H]1O.O=S(=O)(O)O.O=S(=O)([O-])[O-].[Mg+2] (stereo partly shown) | 98.2% |
| C[S+](CCC(N)C(=O)[O-])C[C@H]1O[C@@H](n2cnc3c(N)ncnc32)[C@H](O)[C@@H]1O.O=S(=O)(O)O.O=S(=O)(O)O.[Ca+2].[Cl-].[Cl-] (stereo partly shown) | 97.2% |
| C[S+](CCC(N)C(=O)[O-])C[C@H]1O[C@@H](n2cnc3c(N)ncnc32)[C@H](O)[C@@H]1O.O=S(=O)(O)O.O=S(=O)(O)O.[Cl-].[Cl-].[Mg+2] (stereo partly shown) | 97.2% |
| C[S+](CCC(N)C(=O)[O-])C[C@H]1O[C@@H](n2cnc3c(N)ncnc32)[C@H](O)[C@@H]1O.C[S+](CCC(N)C(=O)[O-])C[C@H]1O[C@@H](n2cnc3c(N)ncnc32)[C@H](O)[C@@H]1O.O=S(=O)(O)O.[Ca+2].[Cl-].[Cl-] (stereo partly shown) | 98.2% |
| C[S+](CCC(N)C(=O)[O-])C[C@H]1O[C@@H](n2cnc3c(N)ncnc32)[C@H](O)[C@@H]1O.C[S+](CCC(N)C(=O)[O-])C[C@H]1O[C@@H](n2cnc3c(N)ncnc32)[C@H](O)[C@@H]1O.Cl.O=S(=O)([O-])[O-].[Mg+2] (stereo partly shown) [SAMe•0.5HCl•0.5MgSO4] | 98.9% |
| C[S+](CCC(N)C(=O)[O-])C[C@H]1O[C@@H](n2cnc3c(N)ncnc32)[C@H](O)[C@@H]1O.C[S+](CCC(N)C(=O)[O-])C[C@H]1O[C@@H](n2cnc3c(N)ncnc32)[C@H](O)[C@@H]1O.Cl.[Cl-].[Cl-].[Mg+2] (stereo partly shown) [SAMe•0.5HCl•0.5MgCl2] | 98.9% |
| C[S+](CCC(N)C(=O)[O-])C[C@H]1O[C@@H](n2cnc3c(N)ncnc32)[C@H](O)[C@@H]1O.O=S(=O)(O)O.O=S(=O)(O)O.O=S(=O)([O-])[O-].[Mg+2] (stereo partly shown) | 97.5% |
| C[S+](CCC(N)C(=O)[O-])C[C@H]1O[C@@H](n2cnc3c(N)ncnc32)[C@H](O)[C@@H]1O.Cl.Cl.[Cl-].[Cl-].[Mg+2] (stereo partly shown) [SAMe•2.0HCl•1.0MgCl2] | 97.4% |
| C[S+](CCC(N)C(=O)[O-])C[C@H]1O[C@@H](n2cnc3c(N)ncnc32)[C@H](O)[C@@H]1O.Cl.Cl.O=S(=O)([O-])[O-].[Mg+2] (stereo partly shown) [SAMe•2.0HCl•1.0MgSO4] | 98.0% |
